molecular target: UniProt:Q5QQ46; experiment: biochemical; assay type: binding; conditions: read-out: Tb Ino1 Tm Shift [˚C]
Sequence (Q5QQ46 whole entry): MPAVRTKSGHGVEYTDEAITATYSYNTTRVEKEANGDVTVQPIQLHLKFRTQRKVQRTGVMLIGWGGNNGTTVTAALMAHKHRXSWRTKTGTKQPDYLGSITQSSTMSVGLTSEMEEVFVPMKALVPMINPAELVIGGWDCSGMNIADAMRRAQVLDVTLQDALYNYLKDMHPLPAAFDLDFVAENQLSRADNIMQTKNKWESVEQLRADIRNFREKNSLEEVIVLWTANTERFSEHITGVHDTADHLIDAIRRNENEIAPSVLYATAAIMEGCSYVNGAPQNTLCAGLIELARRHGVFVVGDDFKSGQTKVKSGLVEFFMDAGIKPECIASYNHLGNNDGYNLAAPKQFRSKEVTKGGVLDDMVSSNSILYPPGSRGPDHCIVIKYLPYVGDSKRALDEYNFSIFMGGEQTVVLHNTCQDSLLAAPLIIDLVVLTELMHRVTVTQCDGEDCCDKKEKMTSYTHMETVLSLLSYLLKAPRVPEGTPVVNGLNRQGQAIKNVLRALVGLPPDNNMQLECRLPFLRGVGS
Label Condition met when ΔTm at 1000 µM < 0.5 °C; otherwise Condition not met.

Look over these answered cases.
Say whether its ΔTm at 1000 µM is strictly beneath 0.5 °C. Entry: "OCCc1c[nH]c2ccccc12" Condition not met

Say whether its ΔTm at 1000 µM is strictly beneath 0.5 °C. Entry: "Nc1cccc(-c2cncnc2)c1" Condition met

Say whether its ΔTm at 1000 µM is strictly beneath 0.5 °C. Entry: "NCc1ccccc1Cl" Condition met

***
Say whether its ΔTm at 1000 µM is strictly beneath 0.5 °C. Entry: "COc1ncccc1N" Condition not met

Say whether its ΔTm at 1000 µM is strictly beneath 0.5 °C. Entry: "CC(=O)c1sccc1N" Condition not met

Say whether its ΔTm at 1000 µM is strictly beneath 0.5 °C. Entry: N#Cc1ccc(OC2CCOCC2)cc1 [compound 645, 4‐(tetrahydropyran‐4‐yloxy)benzonitrile] Condition met

Say whether its ΔTm at 1000 µM is strictly beneath 0.5 °C. Entry: NC(=S)c1ccno1 [compound 86, isoxazole‐5‐carbothioamide] Condition not met

Say whether its ΔTm at 1000 µM is strictly beneath 0.5 °C. Entry: COC(=O)c1ccccc1-n1cccc1 [compound 628, methyl 2‐(1H‐pyrrol‐1‐yl)benzoate] Condition not met
